Record form. Attribute: Post-emergent action, rating, Stellaria. Fill in for each entry.
# System: Stellaria
# Run description: Post-emergent herbicidal action (contact herbicide)
# Assay type: in vivo
# Measurement parameters: 2000 g of active substance/ha, sprayed in the 4- to 6-leaf stage, evaluated after about 18 days, ratings scale 1-9
Lab note: record the figure alone, no unit after it.

Enquiry: Could you tell me which Post-emergent action, rating, Stellaria is on file for NC1=NS(N2CCC[C@H]3CCCC[C@H]32)=NC(Oc2c(F)c(F)cc(F)c2F)=N1 (relative stereo) [6.331] ?
Return: 2

Enquiry: Returns the measured Post-emergent action, rating, Stellaria for the input molecule. Input: CC1CC(N(C)S2=NC(N)=NC(Oc3c(F)c(F)c(F)c(F)c3F)=N2)CC(C)(C)C1 (centres unmarked) [6.194]
Return: 4

Enquiry: Please give the measured Post-emergent action, rating, Stellaria for this molecule: CC1CCCC(OS2=NC(N)=NC(Oc3cc(F)ccc3F)=N2)C1 (centres unmarked) [5.318]
Return: 4

Enquiry: Give its Post-emergent action, rating, Stellaria value. Item: CC1CC(C)CC(OS2=NC(N)=NC(Oc3c(F)c(F)c(F)c(F)c3F)=N2)C1 (centres unmarked) [5.120]
Return: 3

Enquiry: Please report the recorded Post-emergent action, rating, Stellaria for NC1=NS(N2CCCCCCCC2)=NC(Oc2c(F)c(F)c(F)c(F)c2F)=N1 (centres unmarked) [6.257] .
Return: 2

Enquiry: Fill in the blank: the reported Post-emergent action, rating, Stellaria of NC1=NS(N2CCCCCC2)=NC(Oc2c(F)c(F)cc(F)c2F)=N1 (centres unmarked) [6.89] is ____.
Return: 3

Enquiry: # get_value(readout='Post-emergent action, rating, Stellaria', item= NC1=NC(Oc2cc(F)ccc2F)=NS(N2CC[C@H]3CCCC[C@H]32)=N1 (relative stereo) [6.120] )
Return: 4

Enquiry: Please look up its Post-emergent action, rating, Stellaria: CCC1CCCCN1S1=NC(N)=NC(Oc2c(F)c(F)c(F)c(F)c2F)=N1 (centres unmarked) [6.30]
Return: 3

Enquiry: Sample CC1CC(NS2=NC(N)=NC(Oc3c(F)c(F)c(F)c(F)c3F)=N2)CC(C)(C)C1 (centres unmarked) [6.168] — what was its Post-emergent action, rating, Stellaria?
Return: 3

Enquiry: Returns the measured Post-emergent action, rating, Stellaria for the input molecule. Input: NC1=NC(Oc2c(F)c(F)c(F)c(F)c2F)=NS(OCC23CC4CC(CC(C4)C2)C3)=N1 (centres unmarked) [5.85]
Return: 3

Enquiry: Fill in: Post-emergent action, rating, Stellaria of NC1=NS(N2CCCCCCCCCCCC2)=NC(Oc2c(F)c(F)c(F)c(F)c2F)=N1 (centres unmarked) [6.177] is ___
Return: 2
